System: ATN-1;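 note: growth inhibition of human ATN-1 cells, read out with a cell viability assay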
Assay: cells
Format: functional, cell-based
Conditions: Homo sapiens
Description: SANGER: Inhibition of human ATN-1 cell growth in a cell viability assay.
pIC50: −log10 of the molar value.
Label rule not met if pIC50 falls below 7; label rule met in every other case.

>  <Compound>
Cc1ccc(NC(=O)c2cccc(C(C)(C)C#N)c2)cc1Nc1ccc2ncn(C)c(=O)c2c1

>  <Label class>
rule not met

$$$$
>  <Compound>
Fc1cc(-c2cc[nH]/c(=N/c3ccc(-n4cnc(N5CCOCC5)n4)cc3)n2)cc(N2CCOCC2)c1

>  <Label class>
rule not met

$$$$
>  <Compound>
CO[C@@]12[C@H](COC(N)=O)C3=C(C(=O)C(C)=C(N)C3=O)N1C[C@@H]1N[C@@H]12 [MITOMYCIN]

>  <Label class>
rule met

$$$$
>  <Compound>
CC[C@@]1(O)C(=O)OCc2c1cc1n(c2=O)Cc2cc3ccccc3nc2-1 [CAMPTOTHECIN]

>  <Label class>
rule met

$$$$
>  <Compound>
O=C(CCCCCCC(=O)Nc1ccccc1)NO [VORINOSTAT]

>  <Label class>
rule not met

$$$$
>  <Compound>
CC(O)(CS(=O)(=O)c1ccc(F)cc1)C(=O)Nc1ccc(C#N)c(C(F)(F)F)c1 (configuration not stated) [BICALUTAMIDE]

>  <Label class>
rule not met

$$$$

----------
Entries and their measured pIC50 follow.
Test system: CAMA-1
Test: cells
Assay type: functional, cell-based
Conditions: Homo sapiens
Description: SANGER: Inhibition of human CAMA-1 cell growth in a cell viability assay.
pIC50: −log10 of the molar value.

>  <Molecule>
NC(=O)c1ncn([C@@H]2O[C@H](COP(=O)(O)O)[C@@H](O)[C@H]2O)c1N

>  <System tested>
CAMA-1

>  <Rel>
=

>  <pIC50>
3.45

$$$$
>  <Molecule>
CC(O)(CS(=O)(=O)c1ccc(F)cc1)C(=O)Nc1ccc(C#N)c(C(F)(F)F)c1 (configuration not stated) [BICALUTAMIDE]

>  <System tested>
CAMA-1

>  <Rel>
<

>  <pIC50>
5.99

$$$$
>  <Molecule>
Fc1cc(-c2cc[nH]/c(=N/c3ccc(-n4cnc(N5CCOCC5)n4)cc3)n2)cc(N2CCOCC2)c1

>  <System tested>
CAMA-1

>  <Rel>
<

>  <pIC50>
5.29

$$$$
>  <Molecule>
CC(C)=CC[C@@H](O)C1=CC(=O)c2c(O)ccc(O)c2C1=O

>  <System tested>
CAMA-1

>  <Rel>
=

>  <pIC50>
5.82

$$$$
>  <Molecule>
Cn1cc(/C=C2\C(=O)Nc3cccnc32)c2ccccc21

>  <System tested>
CAMA-1

>  <Rel>
<

>  <pIC50>
5.70

$$$$
>  <Molecule>
Cn1c(=O)n(-c2ccc(C(C)(C)C#N)cc2)c2c3cc(-c4cnc5ccccc5c4)ccc3ncc21

>  <System tested>
CAMA-1

>  <Rel>
=

>  <pIC50>
8.01

$$$$
>  <Molecule>
O=c1cc(N2CCOCC2)oc2c(-c3cccc4c3sc3ccccc34)cccc12

>  <System tested>
CAMA-1

>  <Rel>
<

>  <pIC50>
5.70

$$$$

----------
Overview of recorded IC50 for various compounds
Tested on: LB996-RCC
Assay: cells
Assay type: functional, cell-based
Settings: Homo sapiens
Description: SANGER: Inhibition of human LB996-RCC cell growth in a cell viability assay.

>  <Compound>
CCNC(=O)c1noc(-c2cc(C(C)C)c(O)cc2O)c1-c1ccc(CN2CCOCC2)cc1 [LUMINESPIB]

>  <System tested>
LB996-RCC

>  <IC50>
27.1 nM

$$$$
>  <Compound>
CC(C)=CC[C@@H](O)C1=CC(=O)c2c(O)ccc(O)c2C1=O [SHIKONIN]

>  <System tested>
LB996-RCC

>  <IC50>
> 16000 nM

$$$$
>  <Compound>
Cc1[nH]c(/C=C2\C(=O)Nc3ccc(S(=O)(=O)Cc4c(Cl)cccc4Cl)cc32)c(C)c1C(=O)N1CCC[C@@H]1CN1CCCC1 [PHA-665752]

>  <System tested>
LB996-RCC

>  <IC50>
> 2000 nM

$$$$
>  <Compound>
C/C(O)=C(\C#N)C(=O)Nc1cc(Br)ccc1Br

>  <System tested>
LB996-RCC

>  <IC50>
> 16000 nM

$$$$

----------
Tested on: AM-38
Test: cells
Type: functional, cell-based
Details: Homo sapiens
Description: SANGER: Inhibition of human AM-38 cell growth in a cell viability assay.

>  <Compound>
Fc1cc(-c2cc[nH]/c(=N/c3ccc(-n4cnc(N5CCOCC5)n4)cc3)n2)cc(N2CCOCC2)c1

>  <System tested>
AM-38

>  <Rel>
=

>  <IC50, nM>
1110

$$$$
>  <Compound>
Cc1nc(Nc2ncc(C(=O)Nc3c(C)cccc3Cl)s2)cc(N2CCN(CCO)CC2)n1 [DASATINIB]

>  <System tested>
AM-38

>  <Rel>
>

>  <IC50, nM>
1280

$$$$
>  <Compound>
CC[C@]1(O)C[C@@H]2CN(CCc3c([nH]c4ccccc34)[C@@](C(=O)OC)(c3cc4c(cc3OC)N(C)[C@H]3[C@@](O)(C(=O)OC)[C@H](OC(C)=O)[C@]5(CC)C=CCN6CC[C@]43[C@@H]65)C2)C1 [VINBLASTINE]

>  <System tested>
AM-38

>  <Rel>
=

>  <IC50, nM>
36.9

$$$$
>  <Compound>
O=c1[nH]c2ccccc2n1C1CCN(Cc2ccc(-c3nc4cc5[nH]cnc5cc4nc3-c3ccccc3)cc2)CC1

>  <System tested>
AM-38;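 note: growth inhibition of AM-38 cells of human origin, read out by a cell viability assay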

>  <Rel>
>

>  <IC50, nM>
2560

$$$$

----------
Tested on: NTERA-2-cl-D1;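 note: inhibition of cell growth, measured with a cell viability assay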
Experiment: cells
Type: functional, cell-based
Details: Homo sapiens
Description: SANGER: Inhibition of human NTERA-S-cl-D1 cell growth in a cell viability assay.
pIC50: −log10 of the molar value.

>  <Smiles record>
C/C(O)=C(\C#N)C(=O)Nc1cc(Br)ccc1Br

>  <Rel>
<

>  <pIC50>
4.80

$$$$
>  <Smiles record>
Fc1cc(-c2cc[nH]/c(=N/c3ccc(-n4cnc(N5CCOCC5)n4)cc3)n2)cc(N2CCOCC2)c1

>  <Rel>
=

>  <pIC50>
6.50

$$$$
>  <Smiles record>
Cc1n[nH]c2ccc(-c3cncc(OC[C@@H](N)Cc4c[nH]c5ccccc45)c3)cc12

>  <Rel>
=

>  <pIC50>
7.56

$$$$
>  <Smiles record>
Cn1c(=O)n(-c2ccc(C(C)(C)C#N)cc2)c2c3cc(-c4cnc5ccccc5c4)ccc3ncc21

>  <Rel>
=

>  <pIC50>
7.37

$$$$
>  <Smiles record>
CC(=O)c1c(C)c2cnc(Nc3ccc(N4CCNCC4)cn3)nc2n(C2CCCC2)c1=O

>  <Rel>
<

>  <pIC50>
5.40

$$$$

----------
System: NB14
Assay: cells
Type: functional, cell-based
Details: Homo sapiens
Description: SANGER: Inhibition of human NB14 cell growth in a cell viability assay.
pIC50: −log10 of the molar value.
// pIC50 lookup, one value per entry
Assay metric: pIC50

>  <Molecule>
COc1cc(Nc2c(C#N)cnc3cc(OCCCN4CCN(C)CC4)c(OC)cc23)c(Cl)cc1Cl

>  <Assay metric>
pIC50

>  <Value observed>
< 5.70

$$$$
>  <Molecule>
Cc1nc(Nc2ncc(C(=O)Nc3c(C)cccc3Cl)s2)cc(N2CCN(CCO)CC2)n1

>  <Assay metric>
pIC50

>  <Value observed>
< 5.89

$$$$
>  <Molecule>
CCCS(=O)(=O)Nc1ccc(F)c(C(=O)c2c[nH]c3ncc(Cl)cc23)c1F

>  <Assay metric>
pIC50

>  <Value observed>
< 5.00

$$$$
>  <Molecule>
COc1cc(C)c(Sc2cnc(NC(=O)c3ccc(CNC(C)C(C)(C)C)cc3)s2)cc1C(=O)N1CCN(C(C)=O)CC1 (centres undefined)

>  <Assay metric>
pIC50

>  <Value observed>
< 4.99

$$$$

----------
The entries below come with measured pIC50 values attached.
Tested on: TE-1
Test: cells
Format: functional, cell-based
Conditions: Homo sapiens
Description: SANGER: Inhibition of human TE-1 cell growth in a cell viability assay.
pIC50: −log10 of the molar value.
Assay metric: pIC50

>  <Smiles record>
Cc1n[nH]c2ccc(-c3cncc(OC[C@@H](N)Cc4c[nH]c5ccccc45)c3)cc12

>  <Assay metric>
pIC50

>  <Rel>
=

>  <Value observed>
6.96

$$$$
>  <Smiles record>
Cc1nc(Nc2ncc(C(=O)Nc3c(C)cccc3Cl)s2)cc(N2CCN(CCO)CC2)n1

>  <Assay metric>
pIC50

>  <Rel>
=

>  <Value observed>
6.98

$$$$
>  <Smiles record>
Cc1[nH]c(/C=C2\C(=O)Nc3ccc(S(=O)(=O)Cc4c(Cl)cccc4Cl)cc32)c(C)c1C(=O)N1CCC[C@@H]1CN1CCCC1

>  <Assay metric>
pIC50

>  <Rel>
<

>  <Value observed>
5.70

$$$$
>  <Smiles record>
N#C/C(=C1/Nc2ccccc2S1)c1ccnc(NCCc2cccnc2)n1

>  <Assay metric>
pIC50

>  <Rel>
<

>  <Value observed>
5.10

$$$$

----------
Tested on: COLO-829
Assay: cells
Format: functional, cell-based
Settings: Homo sapiens
Description: SANGER: Inhibition of human COLO-829 cell growth in a cell viability assay.

>  <Smiles record>
CCCS(=O)(=O)Nc1ccc(F)c(C(=O)c2c[nH]c3ncc(Cl)cc23)c1F

>  <System tested>
COLO-829

>  <Scale unit>
µM

>  <Rel>
=

>  <IC50>
0.39

$$$$
>  <Smiles record>
NC(=O)c1ncn([C@@H]2O[C@H](COP(=O)(O)O)[C@@H](O)[C@H]2O)c1N

>  <System tested>
COLO-829

>  <Scale unit>
µM

>  <Rel>
>

>  <IC50>
2000

$$$$
>  <Smiles record>
C[C@]12O[C@H](C[C@]1(O)CO)n1c3ccccc3c3c4c(c5c6ccccc6n2c5c31)CNC4=O

>  <System tested>
COLO-829

>  <Scale unit>
µM

>  <Rel>
=

>  <IC50>
1.16

$$$$
>  <Smiles record>
CCNC(=O)c1noc(-c2cc(C(C)C)c(O)cc2O)c1-c1ccc(CN2CCOCC2)cc1

>  <System tested>
COLO-829

>  <Scale unit>
µM

>  <Rel>
>

>  <IC50>
0.256

$$$$
>  <Smiles record>
CCNc1cc(N[C@H]2CC[C@@H](O)CC2)nc(Nc2ccc3c(ccn3Cc3ccccc3)c2)n1

>  <System tested>
COLO-829

>  <Scale unit>
µM

>  <Rel>
>

>  <IC50>
5.12

$$$$
>  <Smiles record>
N#C/C(=C1/Nc2ccccc2S1)c1ccnc(NCCc2cccnc2)n1

>  <System tested>
COLO-829

>  <Scale unit>
µM

>  <Rel>
>

>  <IC50>
8

$$$$
>  <Smiles record>
Cc1nc(Nc2ncc(C(=O)Nc3c(C)cccc3Cl)s2)cc(N2CCN(CCO)CC2)n1

>  <System tested>
COLO-829

>  <Scale unit>
µM

>  <Rel>
=

>  <IC50>
0.122

$$$$
